Hey, just so you know, these numbers are from patent US20100196398A1.

# system.under.test: T1, human CD105 (human, UniProt P17813 26-658)
# T1 construct: whole, on cells; Target as carried by HUVEC cells in the FACS assays; also called endoglin; END
# T1 sequence (looked up): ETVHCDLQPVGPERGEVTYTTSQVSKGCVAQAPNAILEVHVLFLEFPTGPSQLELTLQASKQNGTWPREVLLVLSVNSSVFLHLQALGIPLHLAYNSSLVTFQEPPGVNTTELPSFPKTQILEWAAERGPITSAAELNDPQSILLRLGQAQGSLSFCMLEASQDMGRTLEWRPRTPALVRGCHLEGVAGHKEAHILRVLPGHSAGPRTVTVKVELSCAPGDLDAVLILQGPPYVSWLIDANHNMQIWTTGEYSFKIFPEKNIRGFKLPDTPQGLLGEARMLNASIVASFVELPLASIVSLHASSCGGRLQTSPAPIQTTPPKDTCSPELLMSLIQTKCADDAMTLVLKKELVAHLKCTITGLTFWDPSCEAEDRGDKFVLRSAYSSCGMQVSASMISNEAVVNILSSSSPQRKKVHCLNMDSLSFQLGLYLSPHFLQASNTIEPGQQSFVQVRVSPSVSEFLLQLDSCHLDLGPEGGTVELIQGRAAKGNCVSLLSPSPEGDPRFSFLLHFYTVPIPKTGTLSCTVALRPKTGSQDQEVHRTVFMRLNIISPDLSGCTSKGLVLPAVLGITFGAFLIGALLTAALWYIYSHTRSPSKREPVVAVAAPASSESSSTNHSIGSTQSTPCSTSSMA
# experiment.notes: FACS competition on HUVEC cells: unlabeled mAb at 50 ug/ml, wash, then FITC-labeled SN6 at 2 ug/ml; blocked antibody: SN6
measured.attribute: Max % Bloc(king) of SN6 binding (%)

>  <binder>
fully human monoclonal antibody 6A6 (antibody, V domains shown, XenoMouse hybridoma antibody of Campaign 2 (IgG2 and IgG4 strains); also called 6A6.2) VH: EVQLLESGGGLVQPGGSLRLSCAASGFTFSSYAMSWVRQAPGKGLEWVSTISGGGHSTYYADSVKGRFTISRDNSKNTLYLQMNSLRAEDTAVYYCARIAPAGPHFDYWGQGTLVTVSS VL: NFMLTQPHSVSESPGKTVTFSCTRSSGSIASNFVQWYQQRPGSSPTTVIYEHNQRPSGVPDRFSGSIDSSSSSASLTISGLKTEDEADYYCQFYDRNSHWVFGGGTKLTVL

>  <measured.attribute>
Max % Bloc(king) of SN6 binding

>  <observed.value>
95.4

$$$$
>  <binder>
fully human monoclonal antibody 9H10 (antibody, V domains shown, XenoMouse hybridoma antibody of Campaign 2 (IgG2 and IgG4 strains immunised with B300.19/human CD105 cells); also called 9H10.2) VH: QVQLVESGGGVVQPGRSLRLSCAASGFAFINYGMHWVRQAPGKGLDWVAVISYDGSNKYYTDSVKGRFTISRDNSKNTLYLQMNSLRAEDTAVYYCARDLMGATLFDNWGQGTLVTVSS VL: SYVLTQPPSVSVAPGQTARISCGGNNIGSKSVHWFQQKPGQAPVLVVYDDSDRPSGIPERFSGSNSGNTATLTISRVEAGDEADYYCQVWDSSSDHVVFGGGTKLTVL

>  <measured.attribute>
Max % Bloc(king) of SN6 binding

>  <observed.value>
81.9

$$$$
>  <binder>
fully human monoclonal antibody 11H2 (antibody, V domains shown, XenoMouse hybridoma antibody of Campaign 2 (IgG2 and IgG4 strains); also called 11H2.1) VH: QVQLVESGGGVVQPGRSLRLSCAASGFSFSSYGMHWVRQAPGKGLDWVAIIWYDGSYKYYADSVKGRFTISRDNSKNTLSLQMNSLRAEDTAVYYCARDGKYPFDYWGQGTLVTVSS VL: SYVLTQPPSVSVAPGQTARITCGGNNIGSKSVHWYQQKPGQAPVLVVYDDSDRPSGIPERFSGSNSGNTATLTISRVEAGDEADYYCQVWDRSSDHVVFGGGTKLTVL

>  <measured.attribute>
Max % Bloc(king) of SN6 binding

>  <observed.value>
29.4

$$$$
>  <binder>
fully human monoclonal antibody 6B10 (antibody, V domains shown, XenoMouse hybridoma antibody of Campaign 2 (IgG2 and IgG4 strains); also called 6B10.1; mAb 6B10) VH: QEQLVESGGGVVQPGRSLRLSCTASGFTFSNYGIHWVRQAPGKGLEWVTVISYDGSKKYYADSVKGRFTISRDNSKNTLYLQMNSLRAEDTAVYYCARAFSTMVRGVDHWGQGTLVTVSS VL: DIQMTQSPSSLSASVGDRVTITCQASQDIYKSLNWYQQRPGKAPNLLIYDASNLETGVPSRFSGSGSGTDFTFTISSLQPEDFARYFCQQYDNLPLTFGGGTRVEIK

>  <measured.attribute>
Max % Bloc(king) of SN6 binding

>  <observed.value>
96.9

$$$$
>  <binder>
fully human monoclonal antibody 6B1 (antibody, V domains shown, XenoMouse hybridoma antibody of Campaign 2 (IgG2 and IgG4 strains); also called 6B1.1) VH: QVQLVESGGGVVQPGRSLRLSCAASGFTFSSYGMHWVRQAPGKGLEWVAVIWYDGSNKYYADSVKGRFTISRDNSKNTLYLQMNSLRAEDTAVYYCVRDYSSGWYWGQGTLVTVSS VL: SYELTQPPSVSVSPGQTARITCSGDALPKKYAYWYQQKSGQAPVLVIYEDSKRPSGIPERFSGSSSGTMATLTISGAQVEDEADYSCYSIDSSVNHVVFGGGTKLTVL

>  <measured.attribute>
Max % Bloc(king) of SN6 binding

>  <observed.value>
20.5

$$$$
